Target: UniProt P25101
Sequence (P25101 whole entry): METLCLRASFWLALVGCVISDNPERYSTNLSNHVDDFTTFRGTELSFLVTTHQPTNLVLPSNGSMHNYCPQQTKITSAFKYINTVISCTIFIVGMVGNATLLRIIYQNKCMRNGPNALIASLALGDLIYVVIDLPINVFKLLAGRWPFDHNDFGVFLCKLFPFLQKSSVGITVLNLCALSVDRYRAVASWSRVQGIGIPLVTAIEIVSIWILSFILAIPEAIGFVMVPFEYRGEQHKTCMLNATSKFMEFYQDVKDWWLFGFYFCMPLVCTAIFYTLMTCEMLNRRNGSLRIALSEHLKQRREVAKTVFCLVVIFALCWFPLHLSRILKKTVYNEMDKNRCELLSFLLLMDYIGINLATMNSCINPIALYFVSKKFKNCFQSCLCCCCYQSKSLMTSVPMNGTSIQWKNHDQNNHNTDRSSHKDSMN
Assay: Antagonist activity towards human recombinant Endothelin A receptor expressed in chinese hamster ovary (CHO) cells determined using [125I]ET1 as radioligand
pIC50: −log10 of the molar value.
pIC50 reference
measure_name: pIC50

Cc1cc(C)nc(O[C@H](C(=O)O)[C@@]2(c3ccccc3)NCC(=O)N(Cc3cc(F)cc(F)c3)c3ccccc32)n1 (racemic) : 8.10
Cc1cc(C)nc(O[C@H](C(=O)O)[C@@]2(c3ccccc3)NCC(=O)N(CCO)c3ccccc32)n1 (racemic) : 8.16
CCCCC[C@]1([C@H](Oc2nc(C)cc(C)n2)C(=O)O)NCC(=O)N(Cc2ccc(OC)cc2)c2ccccc21 (racemic) : 6.45
Cc1cc(C)nc(O[C@H](C(=O)O)[C@@]2(c3ccccc3)NCC(=O)N(Cc3ccc(F)c(F)c3)c3ccccc32)n1 (racemic) : 8.19
Cc1cc(C)nc(O[C@H](C(=O)O)[C@@]2(c3ccccc3)NCC(=O)N(CCCC(=O)O)c3ccccc32)n1 (racemic) : 7.34
Cc1cc(C)nc(O[C@H](C(=O)O)[C@@]2(c3ccccc3)NCc3nnc(CC(=O)O)n3-c3ccccc32)n1 (racemic) : 7.23
CSc1cnc(O[C@H](C(=O)O)[C@@]2(c3ccccc3)NCC(=O)N(C)c3ccccc32)nc1 (racemic) : 5.18
COCCOCN1C(=O)CN[C@](c2ccccc2)([C@H](Oc2nc(C)cc(C)n2)C(=O)O)c2ccccc21 (racemic) : 8.12
COc1ccc(CN2C(=O)CN[C@](c3cccc(C)c3)([C@H](Oc3nc(C)cc(C)n3)C(=O)O)c3ccccc32)cc1 (racemic) : 8.20
Cc1cc(C)nc(O[C@H](C(=O)O)[C@@]2(c3ccccc3)NCC(=O)N(CC3CCCCC3)c3ccccc32)n1 (racemic) : 7.08
COc1cnc(O[C@H](C(=O)O)[C@@]2(c3ccccc3)NCC(=O)N(C)c3ccccc32)nc1 (racemic) : 6.42
Cc1cc(C)cc(O[C@H](C(=O)O)[C@@]2(c3ccccc3)NCC(=O)N(Cc3c(Cl)cccc3Cl)c3ccccc32)c1 (racemic) : 7.69
Cc1cc(C)nc(O[C@H](C(=O)O)[C@@]2(c3ccccc3)NCC(=O)N(Cc3cc(F)c(F)cc3F)c3ccccc32)n1 (racemic) : 8.14
COc1ccc(CN2C(=O)CN[C@](c3ccc(C)cc3)([C@H](Oc3nc(C)cc(C)n3)C(=O)O)c3ccccc32)cc1 : 6.66
Cc1cc(C)nc(O[C@H](C(=O)O)[C@@]2(c3ccccc3)NCC(=O)N(Cc3c(Cl)cccc3Cl)c3ccccc32)n1 (racemic) : 8.74
COc1cccc(O[C@H](C(=O)O)[C@@]2(c3ccccc3)NCC(=O)N(Cc3c(Cl)cccc3Cl)c3ccccc32)c1 (racemic) : 6.89
Cc1cc(C)nc(O[C@H](C(=O)O)[C@@]2(c3ccccc3)NCC(=O)N(Cc3cc(F)ccc3F)c3ccccc32)n1 (racemic) : 8.17
Cc1cc(C)nc(O[C@H](C(=O)O)[C@@]2(c3ccccc3)NCC(=O)N(Cc3c(F)ccc(F)c3F)c3ccccc32)n1 (racemic) : 8.62
Cc1cc(C)nc(O[C@H](C(=O)O)[C@@]2(c3ccccc3)NCC(=O)N(Cc3ccc(F)cc3)c3ccccc32)n1 (racemic) : 8.23

Entry source: ChEMBL document CHEMBL1149183
